The measured values listed here are drawn from ChEMBL document CHEMBL1201862.

# System: ACHN
# MEASUREMENT DESCRIPTION: NCI tumour cell line growth inhibition, 48 h
The source made the active and inactive calls. Rule as the data show it: active = GI50 up to about 1.1 µM and inactive = higher.
Possible outcomes: yes for active, no for inactive

>>> label_value("CC(=O)OC1C(C)OC(OC2C[C@](O)(C(C)=O)Cc3c(O)c4c(c(O)c32)C(=O)c2ccccc2C4=O)C(F)C1OC(C)=O (stereo not given in full)")
"yes"
>>> label_value("COC(=O)c1sc(=S)sc1SCc1ccc(CSc2sc(=S)sc2C(=O)OC)cc1")
"no"
>>> label_value("COc1cc(/C=C2\\C(=O)N(c3ccc(NC(C)=O)cc3)C(c3ccccc3)S2(=O)=O)cc(OC)c1OC (stereo not given)")
"no"
>>> label_value("OC12CCC3(OC4CCCCO4)c4ccccc4C3C1c1ccccc12 (stereo not given)")
"no"
>>> label_value("CSc1nnc(COc2ccc(Cl)cc2)o1")
"no"
>>> label_value("O=C(CN1C(=O)c2ccccc2C1=O)OC1C=CCCC1 (stereo not given)")
"no"
>>> label_value("C/C(=C\\COc1ccc2ccc(=O)oc2c1)C1=CC(=O)C(C)(C)O1 [GEIPARVARIN]")
"no"
>>> label_value("CCCCC(CCCC)=NNC(=S)SC")
"no"
>>> label_value("Cc1cc(N(CCC#N)S(=O)(=O)c2ccccc2)ccc1/C=N\\c1cccc(C(=O)O)c1")
"no"
>>> label_value("CC(=O)c1ccc2c(c1)CC1(C2)Cc2ccc3c(c2C1=O)CCC3 (stereo not given)")
"no"
